Numbers sourced from PubChem BioAssay AID1159580.

- Assay Summary: chemical genetic growth profiling, strain panel (AID 1159580);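 note: tested at 20 µM; growth read once vehicle control cultures reached saturation at 30 °C; 1 = growth at the plate median or of vehicle wells; lower values mean less growth of the strain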
- Applied Conditions: S. cerevisiae deletion strains, growth OD, locus YJL187C, strain SWE1 (second series)
In all, about 5,500 compounds went through this assay and about 2,000 (36%) were called active. Another 18% or so got no clear call; they are omitted. Cut-off read from the data, not from the text of the source: active = normalized growth mostly below about 0.91 (no sharp cut-off); inconclusive = no clear call, values can overlap the other calls; inactive = mostly above about 0.92. The list shows a part of the results.
Please state which outcome applies, choosing from class 1 (active), class 0 (inactive)

These solved cases illustrate the format of a correct answer.
INSERT INTO assay_data (compound, class_label) VALUES
  ('COc1ccc(-c2cc(=O)c3c(OC)cc(OC)cc3o2)cc1', 'class 0'),
  ('COc1cc(OC)c2c(=O)cc(-c3ccccc3)oc2c1', 'class 0');

Request: For this compound, state the assay outcome: Clc1ccc(C(c2ccccc2Cl)C(Cl)Cl)cc1 (stereo not given)
Result: class 0

Request: Which result was noted for this compound in the test: COc1cc(C)c2c(=O)cc(-c3ccccc3)oc2c1
Result: class 0

Request: Look up the recorded call for CC(=O)O[C@@H]1CC2C(C)(C)C(=O)C3OC3[C@]2(C)C2CC[C@@]3(C)[C@H](c4ccoc4)OC(=O)C4OC43[C@@]21C (stereo not given in full) in this test.
Result: class 0
